Attribute: viability, T/C
tested on: KRAS PDC multicell spheroid viability; test: Anticancer human tumor 825966-067-R-J1-PDC patient-derived colon carcinoma cell line growth inhibition [KRAS2]; conditions: second compound 0.1 µM; first compound 0.00316 µM; stronger effect = lower value
Report as a plain number; the unit % is understood.

Completed entries (count: 8):
compound	viability, T/C / %
Cn1ncnc1[C@H]1c2n[nH]c(=O)c3cc(F)cc(c23)N[C@@H]1c1ccc(F)cc1 + C=CC(=O)N1CCN(c2nc(=O)n(-c3c(C)ccnc3C(C)C)c3nc(-c4c(O)cccc4F)c(F)cc23)C(C)C1	98.2
Cn1ncnc1[C@H]1c2n[nH]c(=O)c3cc(F)cc(c23)N[C@@H]1c1ccc(F)cc1 + CNCc1ccccc1-c1csc(C(C)Nc2nc(C)nc3cc(OC)c(OC)cc23)c1	76.4
CN(C)C/C=C/C(=O)Nc1cc2c(Nc3ccc(F)c(Cl)c3)ncnc2cc1O[C@H]1CCOC1 + C=CC(=O)N1CCN(c2nc(OCC3CCCN3C)nc3c2CCN(c2cccc4cccc(C)c24)C3)CC1CC#N	100
CC(C)n1nc(-c2ccc3oc(N)nc3c2)c2c(N)ncnc21 + C=CC(=O)N1CCN(c2nc(OCC3CCCN3C)nc3c2CCN(c2cccc4cccc(C)c24)C3)CC1CC#N	119
CCN1CCN(Cc2ccc(Nc3ncc(F)c(-c4cc(F)c5nc(C)n(C(C)C)c5c4)n3)nc2)CC1 + CNCc1ccccc1-c1csc(C(C)Nc2nc(C)nc3cc(OC)c(OC)cc23)c1	98.2
CC(=O)Nc1cccc(-n2c(=O)n(C3CC3)c(=O)c3c(Nc4ccc(I)cc4F)n(C)c(=O)c(C)c32)c1 + C=CC(=O)N1CCN(c2nc(=O)n(-c3c(C)ccnc3C(C)C)c3nc(-c4c(O)cccc4F)c(F)cc23)C(C)C1	128
CCN1CCN(Cc2ccc(Nc3ncc(F)c(-c4cc(F)c5nc(C)n(C(C)C)c5c4)n3)nc2)CC1 + COc1cc2nc(C)nc(NC(C)c3cc(N)cc(C(F)(F)F)c3)c2cc1OC1CCOC1	99.6
Cn1ncnc1[C@H]1c2n[nH]c(=O)c3cc(F)cc(c23)N[C@@H]1c1ccc(F)cc1 + C=CC(=O)N1CCN(c2nc(OCC3CCCN3C)nc3c2CCN(c2cccc4cccc(C)c24)C3)CC1CC#N	119

Kindly consider the entry below.
Briefly, viability, T/C measured for CCN1CCN(Cc2ccc(Nc3ncc(F)c(-c4cc(F)c5nc(C)n(C(C)C)c5c4)n3)nc2)CC1 + CC1OCC2(CCN(c3cnc(Sc4ccnc(N)c4Cl)c(N)n3)CC2)C1N : 121

###

Tested on: KRAS PDC multicell spheroid viability
Experiment: Anticancer human tumor 825966-067-R-J1-PDC cell line growth inhibition [KRAS2];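 further: spheroids exposed to compounds for 7 days; 100% = DMSO vehicle control viability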
Conditions: second compound 0.1 µM; first compound 0.316 µM; stronger effect = lower value
Source text: Multicellular complex tumor spheroid response to RAS pathway inhibitors in combination with a targeted agents in patient-derived cell lines with oncogenic KRAS variants from multiple cancer types A high-throughput screen of multi-cell type tumor spheroids was designed to identify active combinations of targeted small molecules and KRAS pathway inhibitors. […] Compounds. […] If the clinical Cmax for an agent had not been determined, the highest concentration tested was 10 microM. […]
experimental endpoint: viability, T/C (%)
Report as a plain number; the unit % is understood.

Completed entries (count: 2):
compound	viability, T/C [%]
COC(=O)c1ccc2c(C(=Nc3ccc(N(C)C(=O)CN4CCN(C)CC4)cc3)c3ccccc3)c(O)[nH]c2c1 + COc1cc2nc(C)nc(NC(C)c3cc(N)cc(C(F)(F)F)c3)c2cc1OC1CCOC1	81.4
CC1(C)CCC(CN2CCN(c3ccc(C(=O)NS(=O)(=O)c4ccc(NCC5CCOCC5)c([N+](=O)[O-])c4)c(Oc4cnc5[nH]ccc5c4)c3)CC2)=C(c2ccc(Cl)cc2)C1 + C=CC(=O)N1CCN(c2nc(OCC3CCCN3C)nc3c2CCN(c2cccc4cccc(C)c24)C3)CC1CC#N	98.6

Kindly consider the entry below.
The value of viability, T/C recorded for CC(=O)OC12COC1CC(O)C1(C)C(=O)C(O)C3=C(C)C(OC(=O)C(O)C(NC(=O)OC(C)(C)C)c4ccccc4)CC(O)(C(OC(=O)c4ccccc4)C21)C3(C)C (stereo not drawn) + C=CC(=O)N1CCN(c2nc(=O)n(-c3c(C)ccnc3C(C)C)c3nc(-c4c(O)cccc4F)c(F)cc23)C(C)C1 when tested on KRAS PDC multicell spheroid viability reads 20.9

###

tested on: KRAS PDC multicell spheroid viability; assay: Anticancer human tumor 825966-067-R-J1-PDC cell line growth inhibition [KRAS2]; details: second compound 0.1 µM; first compound 0.0316 µM; stronger effect = lower value;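 further: spheroids exposed to compounds for 7 days; 100% = DMSO vehicle control viability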
Attribute: viability, T/C
Report as a plain number; the unit % is understood.

compound	endpoint unit	viability, T/C
CC(=O)OC12COC1CC(O)C1(C)C(=O)C(O)C3=C(C)C(OC(=O)C(O)C(NC(=O)OC(C)(C)C)c4ccccc4)CC(O)(C(OC(=O)c4ccccc4)C21)C3(C)C (stereo not given) + CNCc1ccccc1-c1csc(C(C)Nc2nc(C)nc3cc(OC)c(OC)cc23)c1	%	14.4

The value of viability, T/C recorded for Cn1ncnc1[C@H]1c2n[nH]c(=O)c3cc(F)cc(c23)N[C@@H]1c1ccc(F)cc1 + CC1OCC2(CCN(c3cnc(Sc4ccnc(N)c4Cl)c(N)n3)CC2)C1N when tested on KRAS PDC multicell spheroid viability reads 74.8

The value of viability, T/C recorded for Cn1nccc1Nc1nccc(-c2cc3c(s2)C(C)(C)N(CCN2CCOCC2)C3=O)n1 + COc1cc2nc(C)nc(NC(C)c3cc(N)cc(C(F)(F)F)c3)c2cc1OC1CCOC1 when tested on KRAS PDC multicell spheroid viability reads 105

The value of viability, T/C recorded for Cn1ncnc1[C@H]1c2n[nH]c(=O)c3cc(F)cc(c23)N[C@@H]1c1ccc(F)cc1 + CNCc1ccccc1-c1csc(C(C)Nc2nc(C)nc3cc(OC)c(OC)cc23)c1 when tested on KRAS PDC multicell spheroid viability reads 58.2

The value of viability, T/C recorded for CC1OCC2(CCN(c3cnc(Sc4ccnc(N)c4Cl)c(N)n3)CC2)C1N (stereo not given) + COc1cc2nc(C)nc(NC(C)c3cc(N)cc(C(F)(F)F)c3)c2cc1OC1CCOC1 when tested on KRAS PDC multicell spheroid viability reads 88.2

###

tested on: KRAS PDC multicell spheroid viability; test: Anticancer human tumor 825966-067-R-J1-PDC cell line growth inhibition [KRAS2]; settings: second compound 1 µM; first compound 0.1 µM; stronger effect = lower value;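 further: spheroids exposed to compounds for 7 days; 100% = DMSO vehicle control viability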
experimental endpoint: viability, T/C (%)
Report as a plain number; the unit % is understood.

Completed entries (count: 4):
compound	viability, T/C (%)
COc1cc2nccc(Oc3ccc(NC(=O)C4(C(=O)Nc5ccc(F)cc5)CC4)cc3)c2cc1OC + C=CC(=O)N1CCN(c2nc(=O)n(-c3c(C)ccnc3C(C)C)c3nc(-c4c(O)cccc4F)c(F)cc23)C(C)C1	118
COc1cc(Nc2ncc3c(n2)-c2ccc(Cl)cc2C(c2c(F)cccc2OC)=NC3)ccc1C(=O)O + COc1cc2nc(C)nc(NC(C)c3cc(N)cc(C(F)(F)F)c3)c2cc1OC1CCOC1	155
COC(=O)c1ccc2c(C(=Nc3ccc(N(C)C(=O)CN4CCN(C)CC4)cc3)c3ccccc3)c(O)[nH]c2c1 + CC1OCC2(CCN(c3cnc(Sc4ccnc(N)c4Cl)c(N)n3)CC2)C1N	83.1
CN(C)C/C=C/C(=O)Nc1cc2c(Nc3ccc(F)c(Cl)c3)ncnc2cc1O[C@H]1CCOC1 + CC1OCC2(CCN(c3cnc(Sc4ccnc(N)c4Cl)c(N)n3)CC2)C1N	96.8

Kindly consider the entry below.
Briefly, viability, T/C measured for CC1OCC2(CCN(c3cnc(Sc4ccnc(N)c4Cl)c(N)n3)CC2)C1N (stereo not given) + COc1cc2nc(C)nc(NC(C)c3cc(N)cc(C(F)(F)F)c3)c2cc1OC1CCOC1 : 88

###

Attribute: viability, T/C
Test system: KRAS PDC multicell spheroid viability
Assay: Anticancer human tumor 825966-067-R-J1-PDC cell line growth inhibition [KRAS2];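 further: spheroids exposed to compounds for 7 days; 100% = DMSO vehicle control viability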
Conditions: second compound 0.1 µM; first compound 3.16 µM; stronger effect = lower value
From the text: Multicellular complex tumor spheroid response to RAS pathway inhibitors in combination with a targeted agents in patient-derived cell lines with oncogenic KRAS variants from multiple cancer types A high-throughput screen of multi-cell type tumor spheroids was designed to identify active combinations of targeted small molecules and KRAS pathway inhibitors. […] Compounds. […] If the clinical Cmax for an agent had not been determined, the highest concentration tested was 10 microM. […]
Report as a plain number; the unit % is understood.

Briefly, viability, T/C measured for CC1OCC2(CCN(c3cnc(Sc4ccnc(N)c4Cl)c(N)n3)CC2)C1N (stereo not given) + C=CC(=O)N1CCN(c2nc(OCC3CCCN3C)nc3c2CCN(c2cccc4cccc(C)c24)C3)CC1CC#N : 89.9

Briefly, viability, T/C measured for COc1cc(Nc2ncc3c(n2)-c2ccc(Cl)cc2C(c2c(F)cccc2OC)=NC3)ccc1C(=O)O + C=CC(=O)N1CCN(c2nc(OCC3CCCN3C)nc3c2CCN(c2cccc4cccc(C)c24)C3)CC1CC#N : 122

Briefly, viability, T/C measured for CC(C)NCC(C(=O)N1CCN(c2ncnc3c2C(C)CC3O)CC1)c1ccc(Cl)cc1 (stereo not given) + CNCc1ccccc1-c1csc(C(C)Nc2nc(C)nc3cc(OC)c(OC)cc23)c1 : 20.8

Briefly, viability, T/C measured for CC1COCCN1c1cc(-c2ccnn2C)c2ccnc(-c3ccn[nH]3)c2n1 (stereo not given) + C=CC(=O)N1CCN(c2nc(=O)n(-c3c(C)ccnc3C(C)C)c3nc(-c4c(O)cccc4F)c(F)cc23)C(C)C1 : 47.4

Briefly, viability, T/C measured for O=C(c1cc(Cc2n[nH]c(=O)c3ccccc23)ccc1F)N1CCN(C(=O)C2CC2)CC1 + COc1cc2nc(C)nc(NC(C)c3cc(N)cc(C(F)(F)F)c3)c2cc1OC1CCOC1 : 69.3
